target: Procathepsin L (Homo sapiens, UniProt P07711); assay: Inhibition of human liver cathepsin L
Sequence (P07711 whole entry): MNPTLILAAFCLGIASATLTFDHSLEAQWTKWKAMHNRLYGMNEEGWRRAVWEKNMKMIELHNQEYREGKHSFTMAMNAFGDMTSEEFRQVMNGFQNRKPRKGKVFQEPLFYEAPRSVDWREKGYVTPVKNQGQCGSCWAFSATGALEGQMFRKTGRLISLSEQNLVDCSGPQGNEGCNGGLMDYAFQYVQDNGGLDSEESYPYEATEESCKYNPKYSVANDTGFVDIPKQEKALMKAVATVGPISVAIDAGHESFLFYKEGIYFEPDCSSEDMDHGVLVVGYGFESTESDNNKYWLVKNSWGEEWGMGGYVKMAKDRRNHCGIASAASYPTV
metric: IC50 (µM)

Answered examples (6):
{"molecule": "Cc1cccc(CNc2nc(C#N)nc3c2ncn3C2CCCC2)c1", "assay.target": "Procathepsin L (Homo sapiens, UniProt P07711)", "IC50, µM": 10.5}
{"molecule": "CCCCn1cnc2c(NCc3ccc(Br)cc3)nc(C#N)nc21", "assay.target": "Procathepsin L (Homo sapiens, UniProt P07711)", "IC50, µM": 9.62}
{"molecule": "CCCCn1cnc2c(NCc3ccc(Cl)c(Cl)c3)nc(C#N)nc21", "assay.target": "Procathepsin L (Homo sapiens, UniProt P07711)", "IC50, µM": 1.82}
{"molecule": "N#Cc1nc(NCc2ccc(Cl)c(Cl)c2)c2ncn(CCCCCO)c2n1", "assay.target": "Procathepsin L (Homo sapiens, UniProt P07711)", "IC50, µM": 0.8}
{"molecule": "CCCCCCNc1nc(C#N)nc2c1ncn2C1CCCC1", "assay.target": "Procathepsin L (Homo sapiens, UniProt P07711)", "IC50, µM": 28.4}
{"molecule": "COCCCn1cnc2c(NCc3ccc(Cl)c(Cl)c3)nc(C#N)nc21", "assay.target": "Procathepsin L (Homo sapiens, UniProt P07711)", "IC50, µM": 0.78}

P = COCOCCn1cnc2c(NCc3ccc(Cl)c(Cl)c3)nc(C#N)nc21
Q = N#Cc1nc(NCc2ccc(Cl)cc2)c2ncn(C3CCCC3)c2n1
R = COc1ccc(CNc2nc(C#N)nc3c2ncn3C2CCCC2)cc1
S = COc1ccc(CNc2nc(C#N)nc3c2ncn3Cc2ccccc2)cc1
T = N#Cc1nc(NCc2ccc(Br)cc2)c2ncn(Cc3ccccc3)c2n1
Please put the entries in order of rising IC50. Form field (ranking): labels in requested order.
P, R, S, Q, T

----------
Biological target: Cathepsin B-like cysteine protease (Trypanosoma brucei, UniProt Q6R7Z5)
Sequence (Q6R7Z5 whole entry): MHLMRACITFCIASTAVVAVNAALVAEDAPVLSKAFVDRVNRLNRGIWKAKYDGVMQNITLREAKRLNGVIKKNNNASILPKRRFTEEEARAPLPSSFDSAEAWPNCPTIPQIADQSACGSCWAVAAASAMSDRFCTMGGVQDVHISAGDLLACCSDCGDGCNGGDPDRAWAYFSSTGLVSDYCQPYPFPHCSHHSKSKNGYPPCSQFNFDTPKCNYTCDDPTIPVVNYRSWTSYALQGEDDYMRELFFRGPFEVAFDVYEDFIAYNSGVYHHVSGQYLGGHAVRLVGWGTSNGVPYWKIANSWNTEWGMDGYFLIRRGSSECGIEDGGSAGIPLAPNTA
metric: IC50 (µM)

{"compound": "Cc1cccc(CNc2nc(C#N)nc3c2ncn3Cc2ccccc2)c1", "units.label": "µM", "endpoint.result": 3.3}
{"compound": "CCC(C)CNc1nc(C#N)nc2c1ncn2C1CCCC1 (stereo not given)", "units.label": "µM", "endpoint.result": 14}
{"compound": "COC(CCn1cnc2c(NCc3ccc(Cl)c(Cl)c3)nc(C#N)nc21)OC", "units.label": "µM", "endpoint.result": 3.4}

I = N#Cc1nc(NCc2ccc(Cl)cc2)c2ncn(C3CCCC3)c2n1
II = CCCCn1cnc2c(NCc3ccc(Cl)c(Cl)c3)nc(C#N)nc21
Just curious, which one has the larger IC50 reading, I or II ? Answer by stating the label of the chosen item.
I
(I: 19 µM, II: 4.1 µM)

----------
target: Cathepsin B (Homo sapiens)
pIC50: −log10 of the molar value.
metric: pIC50

Answered examples (5):
{"molecule": "CCC(C)CNc1nc(C#N)nc2c1ncn2C1CCCC1 (stereo unspecified)", "pIC50": "< 4.52"}
{"molecule": "CCC(C)CNc1nc(C#N)nc2c1ncn2Cc1ccccc1 (stereo unspecified)", "pIC50": "< 4.52"}
{"molecule": "N#Cc1nc(NCc2ccccc2)c2ncn(C3CCCC3)c2n1", "pIC50": "< 4.52"}
{"molecule": "N#Cc1nc(NCc2ccc(Cl)cc2)c2ncn(Cc3ccccc3)c2n1", "pIC50": "< 4.52"}
{"molecule": "N#Cc1nc(NCc2ccc(Cl)c(Cl)c2)c2ncn(CCCCCO)c2n1", "pIC50": "< 4.52"}

Dear colleague, please send me the reported pIC50 for "COCOCCn1cnc2c(NCc3ccc(Cl)c(Cl)c3)nc(C#N)nc21" when you can.
< 4.52

----------
tested on: Trypanosoma brucei; assay: Antitrypanosomal activity against Trypanosoma brucei; assay type: functional, organism-based
metric: IC50 (µM)

Answered examples (5):
{"molecule": "CCCCCCNc1nc(C#N)nc2c1ncn2CC1CCCCC1", "IC50 [µM]": 3.6}
{"molecule": "N#Cc1nc(NCc2ccc(Cl)cc2)c2ncn(C3CCCC3)c2n1", "IC50 [µM]": 1.2}
{"molecule": "N#Cc1nc(NCc2ccc(Br)cc2)c2ncn(CCCc3ccccc3)c2n1", "IC50 [µM]": 0.42}
{"molecule": "N#Cc1nc(NC2CCCCC2)c2ncn(C3CCCCC3)c2n1", "IC50 [µM]": 1.4}
{"molecule": "Cc1ccc(C(=O)Nc2ccc(S(=O)(=O)O)c3cc(S(=O)(=O)O)cc(S(=O)(=O)O)c23)cc1NC(=O)c1cccc(NC(=O)Nc2cccc(C(=O)Nc3cc(C(=O)Nc4ccc(S(=O)(=O)O)c5cc(S(=O)(=O)O)cc(S(=O)(=O)O)c45)ccc3C)c2)c1", "IC50 [µM]": 0.13}

A = N#Cc1nc(NCc2ccccc2)c2ncn(Cc3ccccc3)c2n1
B = COC(CCn1cnc2c(NCc3ccc(Cl)c(Cl)c3)nc(C#N)nc21)OC
C = N#Cc1nc(NCc2ccc(Br)cc2)c2ncn(Cc3ccccc3)c2n1
D = CCC(C)CNc1nc(C#N)nc2c1ncn2Cc1ccccc1 (stereo not drawn)
Output the entries ranked by IC50 from maximum down to minimum. Form field (ranking): labels in requested order.
D, A, C, B

A = CCCCn1cnc2c(NCc3ccccc3)nc(C#N)nc21
B = CCC(C)CNc1nc(C#N)nc2c1ncn2C1CCCC1 (stereo not drawn)
Just curious, which one has the larger IC50 reading, A or B ? Answer by stating the label of the chosen item.
A
(A: 1.7 µM, B: 1.1 µM)

----------
Each entry below carries its measured IC50, system: Cathepsin B (Homo sapiens).

Answered examples (6):
{"compound": "Cc1ccc(CNc2nc(C#N)nc3c2ncn3CCCO)cc1", "assay.target": "Cathepsin B (Homo sapiens)", "endpoint.result": "7.69 µM"}
{"compound": "CCCCCCNc1nc(C#N)nc2c1ncn2CC1CCCCC1", "assay.target": "Cathepsin B (Homo sapiens)", "endpoint.result": "> 30 µM"}
{"compound": "COc1ccc(CNc2nc(C#N)nc3c2ncn3Cc2ccccc2)cc1", "assay.target": "Cathepsin B (Homo sapiens)", "endpoint.result": "> 30 µM"}
{"compound": "N#Cc1nc(NC2CCCCC2)c2ncn(Cc3ccccc3)c2n1", "assay.target": "Cathepsin B (Homo sapiens)", "endpoint.result": "17.7 µM"}
{"compound": "CCCCCCNc1nc(C#N)nc2c1ncn2C1CCCC1", "assay.target": "Cathepsin B (Homo sapiens)", "endpoint.result": "> 30 µM"}
{"compound": "CCCCCCNc1nc(C#N)nc2c1ncn2Cc1ccccc1", "assay.target": "Cathepsin B (Homo sapiens)", "endpoint.result": "> 30 µM"}

Quote Cathepsin B (Homo sapiens) IC50 for entry CCCCn1cnc2c(NC(C)c3ccccc3)nc(C#N)nc21 (configuration not stated) .
> 30 µM

Quote Cathepsin B (Homo sapiens) IC50 for entry N#Cc1nc(NCc2ccccc2)c2ncn(CC3CCCCO3)c2n1 (configuration not stated) .
> 30 µM

Quote Cathepsin B (Homo sapiens) IC50 for entry "N#Cc1nc(NCc2ccc(Br)cc2)c2ncn(CCCc3ccccc3)c2n1" .
> 30 µM

Quote Cathepsin B (Homo sapiens) IC50 for entry CC(Nc1nc(C#N)nc2c1ncn2Cc1ccccc1)c1ccccc1 (configuration not stated) .
> 30 µM

Quote Cathepsin B (Homo sapiens) IC50 for entry N#Cc1nc(NCc2ccc(Cl)c(Cl)c2)c2ncn(CC(O)CO)c2n1 (configuration not stated) .
> 30 µM

Quote Cathepsin B (Homo sapiens) IC50 for entry "N#Cc1nc(NCc2ccccc2)c2ncn(Cc3ccccc3)c2n1" .
> 30 µM

----------
tested on: Trypanosoma brucei; assay: Antitrypanosomal activity against Trypanosoma brucei; format: functional, organism-based
metric: IC50 (nM)

Answered examples (6):
{"molecule": "CCCCCCNc1nc(C#N)nc2c1ncn2Cc1ccccc1", "endpoint.result": 700}
{"molecule": "N#Cc1nc(NCc2ccc(Cl)cc2)c2ncn(CCCCO)c2n1", "endpoint.result": 600}
{"molecule": "N#Cc1nc(NC2CCCCC2)c2ncn(Cc3ccccc3)c2n1", "endpoint.result": 330}
{"molecule": "COc1ccc(CNc2nc(C#N)nc3c2ncn3C2CCCC2)cc1", "endpoint.result": 800}
{"molecule": "N#Cc1nc(NCCc2ccccc2)c2ncn(Cc3ccccc3)c2n1", "endpoint.result": 2400}
{"molecule": "N#Cc1nc(NCc2ccc(Cl)cc2)c2ncn(Cc3cccnc3)c2n1", "endpoint.result": 500}

1 = COc1ccc(Cn2cnc3c(NCc4ccc(Cl)cc4)nc(C#N)nc32)cc1
2 = CCCn1cnc2c(NC3CCCCC3)nc(C#N)nc21
3 = CCCCn1cnc2c(NCc3ccc(Cl)c(Cl)c3)nc(C#N)nc21
4 = CCCCn1cnc2c(NCc3ccc(Cl)cc3)nc(C#N)nc21
Output the entries ranked by IC50 from maximum down to minimum. Form field (ranking): labels in requested order.
2, 4, 1, 3

A = CCCCn1cnc2c(NCCc3ccccc3)nc(C#N)nc21
B = N#Cc1nc(NCc2ccc(Cl)c(Cl)c2)c2ncn(CC(O)CO)c2n1 (centres undefined)
Just curious, which one has the larger IC50 reading, A or B ? Answer by stating the label of the chosen item.
A

A = Cc1cccc(CNc2nc(C#N)nc3c2ncn3C2CCCC2)c1
B = CCCCn1cnc2c(NCc3ccc(F)cc3)nc(C#N)nc21
C = N#Cc1nc(NCc2ccccc2)c2ncn(C3CCCC3)c2n1
Please put the entries in order of rising IC50. Form field (ranking): labels in requested order.
B, A, C
(B: 700 nM, A: 1100 nM, C: 1700 nM)
